Where do these numbers come from? They come from the supplement of paper PMC11908140.

B1: library; numbered along this chain (parent)
chain: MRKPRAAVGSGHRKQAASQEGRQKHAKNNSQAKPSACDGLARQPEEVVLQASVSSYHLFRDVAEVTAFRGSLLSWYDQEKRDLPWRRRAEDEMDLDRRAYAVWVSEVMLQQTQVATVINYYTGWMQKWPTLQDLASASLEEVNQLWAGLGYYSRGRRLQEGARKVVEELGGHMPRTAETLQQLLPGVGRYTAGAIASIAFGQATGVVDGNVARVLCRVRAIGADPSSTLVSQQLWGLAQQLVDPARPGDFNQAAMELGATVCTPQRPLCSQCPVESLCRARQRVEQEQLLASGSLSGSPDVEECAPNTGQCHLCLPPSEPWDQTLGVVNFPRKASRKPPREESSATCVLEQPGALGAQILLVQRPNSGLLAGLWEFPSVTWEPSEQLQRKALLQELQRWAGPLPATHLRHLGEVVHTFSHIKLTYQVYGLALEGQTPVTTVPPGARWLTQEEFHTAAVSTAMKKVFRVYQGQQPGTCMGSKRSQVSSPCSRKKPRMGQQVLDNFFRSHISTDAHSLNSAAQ

variants of: B1; experiment: 8OG:A repair function score (normalized; synonymous = 0, nonsense = -1) (normalized log-likelihood score); higher = more repair activity (WT-like); conditions: with 8OG:A DNA repair reporter (GFP) in HEK-293 MUTYH KO cells;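 also: cells sorted at 72 h after reporter transfection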
Assign class by 8OG:A repair function score: not lower than -0.3 means met; lower than -0.3 means not met.

variant_name	answer_label
E341Y	met
P377K	not met
S227N	met
G497F	met
S459K	not met
A357N	met
L289P	met
V117H	not met
Q499P	met
P404Q	met
R81C	not met
S515E	met
A238W	not met
L403C	met
Q499C	met
N251D	not met
S153I	met
Q240F	not met
M496H	met
L295D	met
R98F	met
G161W	not met
G123R	met
T424M	not met
T380C	met
S276Q	met
A431S	met
G193V	not met
A223R	met
L355D	met
R281E	not met
Y121V	not met
R69S	met
G444N	met
G412K	not met
G205Q	not met
G356R	met
G161M	not met
P247N	not met
A354P	met
G222R	not met
S270A	met
N366F	met
G170I	not met
R217Y	not met
A456P	not met
Q450I	met
M173H	not met
H420P	not met
L361S	not met
L370R	not met
V348Q	not met
D249V	not met
L430H	not met
F505A	met
E140S	met
S138Y	met
A115R	met
E90C	met
V166L	met
L430M	not met
L268M	met
V166M	met
Q126A	met
M478V	met
W103V	not met
Q252F	not met
Q182A	met
T439R	met
A254R	not met
V65R	met
L516V	met
S298N	met
L139F	met
I195L	met
S227K	met
D512A	met
G297T	met
G475Y	met
G123W	not met
P402M	met
A334Y	met
